settings: 339.15 K; 101.33 kPa; Liquid; Vibrating tube method
observedProperty: mass density (kg/m3)

{"givenSmiles": "CCCCC[n+]1ccn(CCCC)c1.O=S(=O)([N-]S(=O)(=O)C(F)(F)F)C(F)(F)F", "unitSpec": "kg/m3", "readoutValue": 1281.3}
{"givenSmiles": "CCCC[n+]1ccn(C2CCCC2)c1.O=S(=O)([N-]S(=O)(=O)C(F)(F)F)C(F)(F)F", "unitSpec": "kg/m3", "readoutValue": 1337.8}
{"givenSmiles": "CCCCn1cc[n+](CCC(C)C)c1.O=S(=O)([N-]S(=O)(=O)C(F)(F)F)C(F)(F)F", "unitSpec": "kg/m3", "readoutValue": 1282.2}
{"givenSmiles": "CCCCn1cc[n+](C(CC)CC)c1.O=S(=O)([N-]S(=O)(=O)C(F)(F)F)C(F)(F)F", "unitSpec": "kg/m3", "readoutValue": 1283.6}

* * *

assay: molar heat capacity at constant pressure; settings: 337.15 K; 101.33 kPa; Liquid; DSC

{"givenSmiles": "CCCCn1cc[n+](C(CC)CC)c1.O=S(=O)([N-]S(=O)(=O)C(F)(F)F)C(F)(F)F", "molar heat capacity at constant pressure, J/K/mol": 726.9}
{"givenSmiles": "CCCC[n+]1ccn(C2CCCC2)c1.O=S(=O)([N-]S(=O)(=O)C(F)(F)F)C(F)(F)F", "molar heat capacity at constant pressure, J/K/mol": 681.63}
{"givenSmiles": "CCCCC[n+]1ccn(CCCC)c1.O=S(=O)([N-]S(=O)(=O)C(F)(F)F)C(F)(F)F", "molar heat capacity at constant pressure, J/K/mol": 716.44}
{"givenSmiles": "CCCCn1cc[n+](CCC(C)C)c1.O=S(=O)([N-]S(=O)(=O)C(F)(F)F)C(F)(F)F", "molar heat capacity at constant pressure, J/K/mol": 715.82}

* * *

Measured mass density accompanies every entry in the list below.
settings: 313.15 K; 101.33 kPa; Liquid; Vibrating tube method
observedProperty: mass density (kg/m3)

{"givenSmiles": "CCCCn1cc[n+](C(CC)CC)c1.O=S(=O)([N-]S(=O)(=O)C(F)(F)F)C(F)(F)F", "readoutValue": 1306.2}
{"givenSmiles": "CCCCCC[n+]1ccn(C)c1.O=S(=O)([N-]S(=O)(=O)C(F)(F)F)C(F)(F)F", "readoutValue": 1358.7}
{"givenSmiles": "CCCCC[n+]1ccn(CCCC)c1.O=S(=O)([N-]S(=O)(=O)C(F)(F)F)C(F)(F)F", "readoutValue": 1304}
{"givenSmiles": "CCCCn1cc[n+](CCC(C)C)c1.O=S(=O)([N-]S(=O)(=O)C(F)(F)F)C(F)(F)F", "readoutValue": 1304.9}
{"givenSmiles": "CCCC[n+]1ccn(C2CCCC2)c1.O=S(=O)([N-]S(=O)(=O)C(F)(F)F)C(F)(F)F", "readoutValue": 1361.1}

* * *

assay: molar heat capacity at constant pressure; conditions: 302.15 K; 101.33 kPa; Liquid; DSC
Measured molar heat capacity at constant pressure accompanies every entry in the list below.

{"givenSmiles": "CCCCn1cc[n+](CCC(C)C)c1.O=S(=O)([N-]S(=O)(=O)C(F)(F)F)C(F)(F)F", "unitSpec": "J/K/mol", "molar heat capacity at constant pressure": 688.48}
{"givenSmiles": "CCCCn1cc[n+](C(CC)CC)c1.O=S(=O)([N-]S(=O)(=O)C(F)(F)F)C(F)(F)F", "unitSpec": "J/K/mol", "molar heat capacity at constant pressure": 699.65}
{"givenSmiles": "CCCCC[n+]1ccn(CCCC)c1.O=S(=O)([N-]S(=O)(=O)C(F)(F)F)C(F)(F)F", "unitSpec": "J/K/mol", "molar heat capacity at constant pressure": 690}
{"givenSmiles": "CCCC[n+]1ccn(C2CCCC2)c1.O=S(=O)([N-]S(=O)(=O)C(F)(F)F)C(F)(F)F", "unitSpec": "J/K/mol", "molar heat capacity at constant pressure": 654.84}
